target: Beta-secretase 1 (Homo sapiens); test: Inhibition of human beta-secretase (BACE) in MBP-C125 assay
Sequence (P56817 whole entry): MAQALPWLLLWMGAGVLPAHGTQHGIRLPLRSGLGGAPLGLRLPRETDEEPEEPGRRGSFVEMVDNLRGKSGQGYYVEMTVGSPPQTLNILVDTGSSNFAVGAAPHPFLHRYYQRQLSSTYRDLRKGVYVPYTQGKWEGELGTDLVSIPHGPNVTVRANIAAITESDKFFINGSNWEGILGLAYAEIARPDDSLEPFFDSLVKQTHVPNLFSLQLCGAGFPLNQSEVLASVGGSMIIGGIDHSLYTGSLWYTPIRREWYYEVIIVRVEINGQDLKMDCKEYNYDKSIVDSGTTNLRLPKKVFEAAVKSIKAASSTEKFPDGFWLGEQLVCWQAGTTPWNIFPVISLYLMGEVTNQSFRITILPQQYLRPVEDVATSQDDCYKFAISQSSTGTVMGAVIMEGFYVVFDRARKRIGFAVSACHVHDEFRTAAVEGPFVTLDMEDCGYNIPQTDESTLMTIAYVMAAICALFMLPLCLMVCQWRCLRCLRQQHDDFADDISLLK
pIC50: −log10 of the molar value.
Exercise: state measured pIC50 for each of the molecules provided.

Please give the measured pIC50 for this molecule: CSCC[C@H](NC(=O)[C@@H](NC(=O)OC(C)(C)C)C(C)C)C(=O)NC(CC(C)C)[C@@H](O)CC(=O)N[C@@H](C(=O)NCc1ccc2c(c1)OCO2)C(C)C (some centres undefined)
< 4.00

If you can, please state the reported pIC50 value of CSCC[C@H](NC(=O)[C@@H](NC(=O)OC(C)(C)C)C(C)C)C(=O)NC(CC(C)C)[C@@H](O)CC(=O)N[C@@H](C(=O)NC1C[C@@H](C(=O)O)C[C@@H](C(=O)O)C1)C(C)C (some centres undefined) .
6.52

Would you mind telling me what pIC50 value was observed for CCCCNC(=O)[C@H](NC(=O)C[C@H](O)C(CC(C)C)NC(=O)[C@H](CCSC)NC(=O)[C@@H](NC(=O)OC(C)(C)C)C(C)C)C(C)C (some centres undefined) ?
< 3.70

Reported pIC50 for CSCC[C@H](NC(=O)[C@@H](NC(=O)OC(C)(C)C)C(C)C)C(=O)NC(CC(C)C)[C@@H](O)CC(=O)N[C@@H](C(=O)NC1CCCCC1)C(C)C (some centres undefined) : what is it?
< 3.70
